Molecular target: HIV Integrase (Human immunodeficiency virus type 1 group M subtype B)
Construct: 0.26 ng of recombinant integrase was then incubated with the beads
Test: In vitro activity against integrase, Method C (electroluminescence, ECL assay)
Type: biochemical
Details: read-out: Percent inhibition of HIV Integrase at 70 uM
Assay Endpoint: inhibition at 70 µM

- Compound: "CN(Cc1ccc(Cl)cc1)C(=O)/C=C(\\O)C(=O)O"
  Study System: "HIV Integrase (Human immunodeficiency virus type 1 group M subtype B)"
  inhibition at 70 µM: "99%"
- Compound: "CN(CCCc1ccc(F)cc1)C(=O)/C=C(\\O)C(=O)O"
  Study System: "HIV Integrase (Human immunodeficiency virus type 1 group M subtype B)"
  inhibition at 70 µM: "99%"
- Compound: "CCCNC(=O)/C(O)=C/C(=O)N(Cc1ccc(F)cc1)Cc1ccc(F)cc1"
  Study System: "HIV Integrase (Human immunodeficiency virus type 1 group M subtype B)"
  inhibition at 70 µM: "83%"

Exercise: So what's the measured inhibition at 70 µM for this one? CN(Cc1ccco1)C(=O)/C=C(\O)C(=O)O
Key: 91%

Exercise: So what's the measured inhibition at 70 µM for this one? O=C(O)/C(O)=C/C(=O)N(CCCc1ccccc1Cl)Cc1ccc(F)cc1
Key: 99%

Exercise: So what's the measured inhibition at 70 µM for this one? CNC(=O)c1cccc(C(c2ccc(F)cc2)N(C)C(=O)/C=C(\O)C(=O)O)c1 (centres unmarked)
Key: 90%

Exercise: So what's the measured inhibition at 70 µM for this one? O=C(O)/C(O)=C/C(=O)N(CCOc1ccccc1)Cc1ccc(F)cc1
Key: 99%

Exercise: So what's the measured inhibition at 70 µM for this one? O=C(O)/C(O)=C/C(=O)N(CCCc1ccc(-c2ccccc2)cc1)Cc1ccc(F)cc1
Key: 94%
